Answer each item with its documented EC50.
# Measured target: T1, HD49 (huntingtin exon 1 protein with 49 polyQ repeats after cleavage of the GST tag; aggregation reaction) (human, UniProt P42858 1-88)
# T1 chain: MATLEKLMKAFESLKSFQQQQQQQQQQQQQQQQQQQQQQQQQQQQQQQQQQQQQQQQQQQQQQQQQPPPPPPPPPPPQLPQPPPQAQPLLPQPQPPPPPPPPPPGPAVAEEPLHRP
# Measurement protocol: ELISA
Answers are plain numbers, in nM.

These recorded examples may help you get a feel for the data.
binder="NI-302.15F9 (antibody, V domains shown) VH: EVQLVESGGGLVTPGGSLRLSCEASGFLFKNSSMNWVRQTPGKGLEWVSSIDTSATNYKYYADSVKGRFTISRDDATNSLYLQMNSLRADDTATYYCARGYYTPRDFDYWGQGTLVTVSS VL: DVVMTQSPQTLSVSLGQAASISCRSSQSLLYRDNNTYLNWFHQRPGQSPRRLIYRASDRDSGVPDRFSGGGSGTDFTLKISGVEAEDVGTYYCMQGTHWPRTFGQGTKVEIK" unit_of_measure=nM measurement=6
binder="NI-302.15D3 (antibody, V domains shown) VH: EVQLVESGGDLVQPGGSLRLSCAASGFTFSSYWMHWVRQAPGKGLVWVSRISNDGSSKTYADSVKGRFTISRDNAKNTLYLQMNSLRAEDTAVYYCAILGGYCSSTSCRPFDNWGQGTLVTVSS VL: QSALTQPASVSGSPGQSITISCTGTSSDVGVYNYVSWYQQHPGKAPKLMIFDVSNRPSGISNRFSGSKSGNTASLTISGLQAEDEADYYCSSYTSSDTWVFGGGTKLTIL" unit_of_measure=nM measurement=15

Let us examine a further case.
Query: Return value of EC50 for input NI-302.63F3 (antibody, V domains shown) VH: QVQLVQSGSAFKKPGTSVKVSCKASGYTFETRSMNWVRQAPGQGLEYMGWINTNTGNRTYVQAFRGRFVFSLDTSVSTAYLQISNLKTEDTAVYYCARGAGGGYWFDSWGQGTLVTVSS VL: DIQMTQSPDSLAVSLGERATINCKSNQSLFYSSNNNNYLAWYQHKSGQPPKLLVYWGSTRESGVPDRFSGSGSGTDFTLTISSLQAEDVAIYYCHQYYHNPYTFGQGTKLEIK , no commentary.
Reply: 0.4
